Target: T1, human IL-17A (human, UniProt Q16552 24-155)
T1 construct: secreted form made in Hek293 cells (GenBank U32659); also called hIL-17A; hIL17A
T1 sequence (Q16552 other isoform, or with tags, fused parts or gaps): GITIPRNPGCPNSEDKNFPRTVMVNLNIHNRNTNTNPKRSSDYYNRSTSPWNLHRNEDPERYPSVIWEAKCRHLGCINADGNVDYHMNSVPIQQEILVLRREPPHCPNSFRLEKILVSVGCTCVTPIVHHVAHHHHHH
Experiment: AlphaScreen hIL-17A-IL-17RA; vs IL17MS13E02
Below: a set of entries, each annotated with reported IC50 fold difference vs WT.

binder	IC50 fold difference vs WT / fold
IL17MS3019 (VHH, variant of IL17MS13E02; Kabat numbering) VHH: EVQLVESGGGLVQPGGSLRLSCAASGRTYDAMGWFRQAPGKEREFVAAISGSGDDTYYADSVKGRFTISKDNSGITMYLQMNSLRPEDTAVYYCATRRGLYYVWDSNDYENWGQGTLVTVSS	3.72
IL17MS3036 (VHH, variant of IL17MS13E02; Kabat numbering) VHH: EVQLVESGGGLVQAGGSLRLSCAASGRTYDAMGWLRQAPGKEREFVAAISGSGDDTYYADSVKGRFTISKDNAGITMYLQMNSLKPEDTAVYYCATRRGLYYVWDTNDYENWGQGTQVTVSS	2.06
IL17MS3020 (VHH, variant of IL17MS13E02; Kabat numbering) VHH: EVQLVESGGGLVQPGGSLRLSCAASGRTYDAMGWLRQAPGKEREFVAAISGSGDDTYYADSVKGRFTISRDNSGITMYLQMNSLRPEDTAVYYCATRRGLYYVWDSNDYENWGQGTLVTVSS	1.24
